# ASSAY TARGET: VR1/TRPV1 receptor (Homo sapiens, UniProt Q8NER1)
# Sequence (Q8NER1 whole entry): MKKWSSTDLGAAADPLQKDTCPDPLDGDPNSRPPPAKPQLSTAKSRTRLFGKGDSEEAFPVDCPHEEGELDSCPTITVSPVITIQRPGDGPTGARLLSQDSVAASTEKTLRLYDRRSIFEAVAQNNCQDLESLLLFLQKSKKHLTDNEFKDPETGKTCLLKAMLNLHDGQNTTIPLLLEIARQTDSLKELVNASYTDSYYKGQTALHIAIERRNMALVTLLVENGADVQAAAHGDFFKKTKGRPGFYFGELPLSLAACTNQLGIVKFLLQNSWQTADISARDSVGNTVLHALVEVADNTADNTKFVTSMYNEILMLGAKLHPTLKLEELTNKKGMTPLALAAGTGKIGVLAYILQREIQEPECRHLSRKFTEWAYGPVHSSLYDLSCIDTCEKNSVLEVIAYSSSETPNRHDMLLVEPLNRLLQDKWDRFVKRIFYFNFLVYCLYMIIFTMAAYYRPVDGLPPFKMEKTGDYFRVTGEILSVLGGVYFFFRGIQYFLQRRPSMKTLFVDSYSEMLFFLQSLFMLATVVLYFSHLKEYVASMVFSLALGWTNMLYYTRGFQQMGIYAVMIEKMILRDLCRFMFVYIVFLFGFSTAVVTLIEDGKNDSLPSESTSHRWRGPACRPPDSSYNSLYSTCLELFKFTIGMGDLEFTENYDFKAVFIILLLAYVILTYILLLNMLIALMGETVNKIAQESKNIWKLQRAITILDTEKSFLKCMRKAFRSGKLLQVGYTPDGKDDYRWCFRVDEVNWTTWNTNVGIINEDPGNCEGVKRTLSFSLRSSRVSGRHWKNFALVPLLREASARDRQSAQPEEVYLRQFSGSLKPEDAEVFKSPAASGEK
# PROTOCOL DETAILS: IC50 (human) after pH stimulus
# Type: cell-based
# SETTINGS: table 4
pIC50: −log10 of the molar value.
I would appreciate it if you labelled entries condition met when pIC50 is 7 or higher, otherwise condition not met.

CC(C(=O)NCc1ccc(C(F)(F)F)nc1N1CCC(Cc2ccccc2)CC1)c1ccc(NS(C)(=O)=O)c(F)c1 (stereo not shown) [Example 104] :: condition met
CC/C=C\COc1nc(C(F)(F)F)ccc1CNC(=O)C(C)c1ccc(NS(C)(=O)=O)c(F)c1 (stereo not shown) [Example 299] :: condition met

Threshold query (pIC50 >= 7) on CCOCCCOc1nc(C(F)(F)F)ccc1CNC(=O)C(C)c1ccc(NS(C)(=O)=O)c(F)c1 (stereo not shown) [Example 361]
condition not met

Threshold query (pIC50 >= 7) on CC(C(=O)NCc1ccc(C(F)(F)F)nc1OCC1CCCC1)c1ccc(NS(C)(=O)=O)c(F)c1 (stereo not shown) [Example 161]
condition met

Threshold query (pIC50 >= 7) on CC(C(=O)NCc1ccc(C(F)(F)F)nc1-c1ccc(Cl)cc1)c1ccc(NS(C)(=O)=O)c(F)c1 (stereo not shown) [Example 147]
condition met

Threshold query (pIC50 >= 7) on CC(C(=O)NCc1ccc(C(F)(F)F)nc1Nc1ccccc1)c1ccc(NS(C)(=O)=O)c(F)c1 (stereo not shown) [Example 110]
condition not met

Threshold query (pIC50 >= 7) on CC(C(=O)NCc1ccc(C(F)(F)F)nc1OCc1ccc(F)cc1)c1ccc(NS(C)(=O)=O)c(F)c1 (stereo not shown) [Example 175]
condition met

====

# ASSAY TARGET: VR1/TRPV1 receptor (Homo sapiens)
# PROTOCOL DETAILS: IC50 (human) after pH stimulus
# Type: cell-based
# SETTINGS: table 4
ASSAY READOUT: log10 of IC50 (log10 of the value in nM)
Hey, these are logged values: log10 of IC50, nM being the unit before logging.

Recorded log10 of IC50 (molecule CCC1CCN(c2cc(C(F)(F)F)ccc2CNC(=O)C(C)c2ccc(NS(C)(=O)=O)c(F)c2)CC1 (stereo not shown) ): 1.25

Recorded log10 of IC50 (molecule CCCCCc1nc(C(F)(F)F)ccc1CNC(=O)C(C)c1ccc(NS(C)(=O)=O)c(F)c1 (stereo not shown) ): 0.95

====

# ASSAY TARGET: vanilloid receptor (VR1) (Homo sapiens, UniProt Q8NER1)
# Construct: expressed in transfected cells; host or cells: CHO K1 cells (ECACC), stably transfected
# Sequence (Q8NER1 whole entry): as above
# PROTOCOL DETAILS: FLIPR Ca2+ influx assay on CHO K1 cells transfected with the VR1 gene (pharmacological method II)
# Format: cell-based
# SETTINGS: @ 1 μM; ne = no effect
ASSAY READOUT: inhibition in percent, Ki (human) Cap.

CC(C(=O)NCc1ccc(C(F)(F)F)nc1N1CCC(O)CC1)c1ccc(NS(C)(=O)=O)c(F)c1 (stereo not shown) :: ne @ 1 μM
CC(C(=O)NCc1ncc(C(F)(F)F)cc1N1CCCC1)c1ccc(NS(C)(=O)=O)c(F)c1 (stereo not shown) :: 15% @ 1 μM
CC(C(=O)NCc1ccc(C(F)(F)F)cc1[N+](=O)[O-])c1ccc(NS(C)(=O)=O)c(F)c1 (stereo not shown) :: ne @ 1 μM
CC(C(=O)NCc1ccc(C(F)(F)F)cc1N)c1ccc(NS(C)(=O)=O)c(F)c1 (stereo not shown) :: ne @ 1 μM

====

# ASSAY TARGET: VR1/TRPV1 receptor (Homo sapiens, UniProt Q8NER1)
# PROTOCOL DETAILS: IC50 (human) after pH stimulus
# Assay type: cell-based
# SETTINGS: table 4
ASSAY READOUT: pIC50
Value format note: pIC50 is -log10 of concentration (mol/L); just state the number.

CC(C(=O)NCc1ccc(C(F)(F)Cl)nc1OC1CCCCC1)c1ccc(NS(C)(=O)=O)c(F)c1 (stereo not drawn) :: 7.75
CC(C(=O)NCc1ccc(C(F)(F)F)nc1N(C)c1ccccc1)c1ccc(NS(C)(=O)=O)c(F)c1 (stereo not drawn) :: 7.24

With VR1/TRPV1 receptor (Homo sapiens, UniProt Q8NER1) as the test system, CC(C(=O)NCc1ccc(C(F)(F)F)nc1N1CCC(C(F)(F)F)CC1)c1ccc(NS(C)(=O)=O)c(F)c1 (stereo not drawn) showed pIC50 of 7.51

With VR1/TRPV1 receptor (Homo sapiens, UniProt Q8NER1) as the test system, CC(C(=O)NCc1ccc(C(C)(C)C)nc1OC1CCCC1)c1ccc(NS(C)(=O)=O)c(F)c1 (stereo not drawn) showed pIC50 of 7.07

With VR1/TRPV1 receptor (Homo sapiens, UniProt Q8NER1) as the test system, CC(C(=O)NCc1ccc(C(F)(F)F)nc1-c1cccc(Cl)c1)c1ccc(NS(C)(=O)=O)c(F)c1 (stereo not drawn) showed pIC50 of 8.01

With VR1/TRPV1 receptor (Homo sapiens, UniProt Q8NER1) as the test system, CC1CCC(COc2nc(C(F)(F)F)ccc2CNC(=O)C(C)c2ccc(NS(C)(=O)=O)c(F)c2)CC1 (stereo not drawn) showed pIC50 of 7.35

With VR1/TRPV1 receptor (Homo sapiens, UniProt Q8NER1) as the test system, CCCN(CCC)c1cc(C(F)(F)F)ccc1CNC(=O)C(C)c1ccc(NS(C)(=O)=O)c(F)c1 (stereo not drawn) showed pIC50 of 7.58

====

# ASSAY TARGET: VR1/TRPV1 receptor (Homo sapiens, UniProt Q8NER1)
# PROTOCOL DETAILS: IC50 (human) after pH stimulus
# Type: cell-based
# SETTINGS: @ 1 μM; ne = no effect; read-out: inhibition in percent, IC50 (human) after pH stimulus
ASSAY READOUT: inhibition at 1 µM

Example compounds with recorded inhibition at 1 µM:
CC(C(=O)NCc1ccc(C(F)(F)F)nc1N1CCN(C2CCCCC2)CC1)c1ccc(NS(C)(=O)=O)c(F)c1 (stereo not shown) :: 51%
COc1ccc(-c2nc(C(F)(F)F)ccc2CNC(=O)C(C)c2ccc(NS(C)(=O)=O)c(F)c2)cc1F (stereo not shown) :: 63%
Cc1cc(C(C)C(=O)NCc2ccc(C(F)(F)F)nc2N2CCC(C)CC2)ccc1NS(C)(=O)=O (stereo not shown) :: 41%

Recorded inhibition at 1 µM (compound COc1ccc(N2CCN(c3cc(C(F)(F)F)ccc3CNC(=O)C(C)c3ccc(NS(C)(=O)=O)c(F)c3)CC2)cc1 (stereo not shown) ): 70%

Recorded inhibition at 1 µM (compound CC1CCCN(c2nc(C(F)(F)F)ccc2CNC(=O)C(C)c2ccc(NS(C)(=O)=O)c(F)c2)C1 (stereo not shown) ): 57%

====

# ASSAY TARGET: VR1/TRPV1 receptor (Homo sapiens, UniProt Q8NER1)
# PROTOCOL DETAILS: IC50 (human) after pH stimulus
# Assay type: cell-based
# SETTINGS: table 4
ASSAY READOUT: pIC50
Value format note: pIC50 is -log10 of concentration (mol/L); just state the number.

CCOC1CCN(c2nc(C(F)(F)F)ccc2CNC(=O)C(C)c2ccc(NS(C)(=O)=O)c(F)c2)CC1 (stereo not shown) :: 6.21
CCCCCOc1nc(C(F)(F)F)cc(C)c1CNC(=O)C(C)c1ccc(NS(C)(=O)=O)c(F)c1 (stereo not shown) :: 5.93
CC(C(=O)NCc1ccc(C(F)(F)F)nc1OC1CCC1)c1ccc(NS(C)(=O)=O)c(F)c1 (stereo not shown) :: 7.16
CC(C(=O)NCc1ccc(C(C)(C)C)nc1N1CCCCCC1)c1ccc(NS(C)(=O)=O)c(F)c1 (stereo not shown) :: 6.81

Recorded pIC50 (compound CCOCCOc1nc(C(C)(C)C)ccc1CNC(=O)C(C)c1ccc(NS(C)(=O)=O)c(F)c1 (stereo not shown) ): 6.49

Recorded pIC50 (compound CC(C(=O)NCc1ccc(C(F)(F)F)cc1N1CCC(c2ccc(F)cc2)CC1)c1ccc(NS(C)(=O)=O)c(F)c1 (stereo not shown) ): 7.00

Recorded pIC50 (compound CC(C(=O)NCc1ccc(C(C)(C)C)cc1OC1CCCC1)c1ccc(NS(C)(=O)=O)c(F)c1 (stereo not shown) ): 6.84

====

Parameter: pKi. Scope: all listed entries.
# ASSAY TARGET: vanilloid receptor 1 (VR1/TRPV1) of the rat species (Rattus norvegicus)
# Construct: The spinal column is removed from decapitated rats; from tissue; host or cells: primary cells dissociated from rat dorsal root ganglia
# Sequence (O35433 whole entry): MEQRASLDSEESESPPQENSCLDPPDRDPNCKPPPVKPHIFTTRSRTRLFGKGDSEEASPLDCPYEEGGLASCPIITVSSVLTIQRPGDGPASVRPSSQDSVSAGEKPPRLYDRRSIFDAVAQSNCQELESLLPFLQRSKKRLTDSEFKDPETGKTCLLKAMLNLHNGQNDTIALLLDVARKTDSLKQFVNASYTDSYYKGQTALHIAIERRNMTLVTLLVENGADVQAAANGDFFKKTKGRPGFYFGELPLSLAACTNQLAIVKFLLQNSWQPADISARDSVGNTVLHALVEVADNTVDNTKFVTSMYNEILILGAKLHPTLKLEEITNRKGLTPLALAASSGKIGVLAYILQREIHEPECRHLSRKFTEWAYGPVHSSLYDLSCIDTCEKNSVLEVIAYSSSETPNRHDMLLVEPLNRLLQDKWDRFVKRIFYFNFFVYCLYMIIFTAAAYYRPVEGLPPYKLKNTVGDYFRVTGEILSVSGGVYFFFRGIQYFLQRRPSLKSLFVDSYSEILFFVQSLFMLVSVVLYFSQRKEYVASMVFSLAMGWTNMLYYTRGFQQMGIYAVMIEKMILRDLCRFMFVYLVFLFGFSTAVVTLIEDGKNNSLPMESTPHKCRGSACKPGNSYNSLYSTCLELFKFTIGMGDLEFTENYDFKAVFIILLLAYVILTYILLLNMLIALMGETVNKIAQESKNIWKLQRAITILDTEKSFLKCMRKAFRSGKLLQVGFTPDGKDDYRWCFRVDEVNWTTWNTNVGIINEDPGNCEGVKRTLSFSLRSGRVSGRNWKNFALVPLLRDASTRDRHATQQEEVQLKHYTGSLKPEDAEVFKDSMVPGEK
# PROTOCOL DETAILS: FLIPR Ca2+ influx assay on rat dorsal root ganglia cells (pharmacological method I)
# Format: cell-based
# SETTINGS: table 4; capsaicin; read-out: Ki (rat) Cap.
Value format note: pKi is -log10 of concentration (mol/L); just state the number.

Example compounds with recorded pKi:
CCCCCCOc1nc(C(F)(F)Cl)ccc1CNC(=O)C(C)c1ccc(NS(C)(=O)=O)c(F)c1 (stereo not shown) [Example 180] :: 9.52
CCCCCCc1nc(C(F)(F)F)ccc1CNC(=O)C(C)c1ccc(NS(C)(=O)=O)c(F)c1 (stereo not shown) [Example 267] :: 8.77
CCCCc1ccc(COc2nc(C(F)(F)F)ccc2CNC(=O)C(C)c2ccc(NS(C)(=O)=O)c(F)c2)cc1 (stereo not shown) [Example 243] :: 8.29

// moving on: another record for pKi
With vanilloid receptor 1 (VR1/TRPV1) of the rat species (Rattus norvegicus) as the test system, C[C@@H](C(=O)NCc1ccc(C(F)(F)F)nc1-c1ccc(F)c(Cl)c1)c1ccc(NS(C)(=O)=O)c(F)c1 [Example 121] showed pKi of 8.24
